# Ki annotations
# assayed_system: T1, human mu opioid receptor (human, UniProt P35372 1-400)
# T1 construct: mu opioid receptor, human recombinant, in membranes of transfected CHO cells; also called mu receptor; source: commercial membranes of CHO cells transfected with human recombinant opioid receptors
# T1 sequence (P35372 whole entry): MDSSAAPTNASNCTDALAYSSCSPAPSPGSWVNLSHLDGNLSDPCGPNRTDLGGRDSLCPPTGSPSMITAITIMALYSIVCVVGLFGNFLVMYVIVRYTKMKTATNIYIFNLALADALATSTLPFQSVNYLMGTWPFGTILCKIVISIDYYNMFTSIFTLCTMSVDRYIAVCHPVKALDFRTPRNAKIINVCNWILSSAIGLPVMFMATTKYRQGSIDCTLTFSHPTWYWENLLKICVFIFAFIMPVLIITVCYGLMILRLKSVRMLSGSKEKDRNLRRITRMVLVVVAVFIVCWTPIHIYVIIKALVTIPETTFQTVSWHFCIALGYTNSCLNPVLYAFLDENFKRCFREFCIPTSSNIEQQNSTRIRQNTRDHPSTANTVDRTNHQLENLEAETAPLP
# protocol_summary: radioligand binding; displacement of [3H]DAMGO from commercial membranes of CHO cells transfected with the human recombinant mu opioid receptor; Ki, mean ± SEM, n ≥ 3
# particulars: one partner purified
Starred links: 1 amine or outer side, 2 acyl side, 3 side chain; linkers in the order of their positions; H or OH if unused. Non-standard residues stand in square brackets, D forms with d. No end group written: not given here. (R)β21Nal = (R)-β2-1-naphthylalanine, O=C([C@@H](CN[*:1])Cc1cccc2ccccc12)[*:2]; (R)β31Nal = (R)-β3-1-naphthylalanine, O=C(C[C@@H](Cc1cccc2ccccc12)N[*:1])[*:2]; Dmt = Cc1cc(O)cc(C)c1C[C@H](N)C(=O)O
readout_type: Ki (nM)

binder="[Dmt]P[(R)β21Nal]F-NH2 (N-terminus assumed; SMILES Cc1cc(O)cc(C)c1C[C@H](N)C(=O)N1CCC[C@H]1C(=O)NC[C@@H](Cc1cccc2ccccc12)C(=O)N[C@@H](Cc1ccccc1)C(N)=O) [EM-2 analog 11 (Dmt-Pro-(R)-β2-1-Nal-Phe-NH2)]" readout_value=9.54
binder="YP[(R)β21Nal]F-NH2 (N-terminus assumed; SMILES NC(=O)[C@H](Cc1ccccc1)NC(=O)[C@@H](CNC(=O)[C@@H]1CCCN1C(=O)[C@@H](N)Cc1ccc(O)cc1)Cc1cccc2ccccc12) [EM-2 analog 10 (Tyr-Pro-(R)-β2-1-Nal-Phe-NH2)]" readout_value=34.9
binder="YP[(R)β31Nal]F-NH2 (N-terminus assumed; SMILES NC(=O)[C@H](Cc1ccccc1)NC(=O)C[C@@H](Cc1cccc2ccccc12)NC(=O)[C@@H]1CCCN1C(=O)[C@@H](N)Cc1ccc(O)cc1) [EM-2 analog 12 (Tyr-Pro-(R)-β3-1-Nal-Phe-NH2)]" readout_value=32.1
binder="[Dmt]P[(R)β31Nal]F-NH2 (N-terminus assumed; SMILES Cc1cc(O)cc(C)c1C[C@H](N)C(=O)N1CCC[C@H]1C(=O)N[C@@H](CC(=O)N[C@@H](Cc1ccccc1)C(N)=O)Cc1cccc2ccccc12) [EM-2 analog 13 (Dmt-Pro-(R)-β3-1-Nal-Phe-NH2)]" readout_value=2.75

Data origin, for the record: paper PMC9998502
